# experiment.summary: chemical genetic growth profiling, strain panel (AID 1159580);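 further: tested at 20 µM; growth read once vehicle control cultures reached saturation at 30 °C; 1 = growth at the plate median or of vehicle wells; lower values mean less growth of the strain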
# conditions: S. cerevisiae deletion strains, growth OD, locus YMR307W, strain GAS1, active compounds read low
About 2,000 (36%) of roughly 5,500 compounds were called active. Roughly 18% stayed inconclusive and do not appear here. Some of the results follow.
The entries below are paired with their reported normalized growth.
property: normalized growth

* C=C1C2CC[C@@]3(C)[C@H](c4ccoc4)OC(=O)C[C@]13O[C@H]1CC(=O)C(C)(C)C(CC(=O)OC)[C@@]21C (some centres undefined) | 0.998
* Clc1ccc2c(c1)C(N1CCNCC1)=Nc1ccccc1O2 | 1.15
* CC(C)CCCC(C)C1CCC2C3CC[C@H]4CCCC[C@]4(C)C3CC[C@]12C (some centres undefined) | 1.07
* CC(CCC(=O)O)[C@H]1CCC2C3C[C@H](O)[C@@H]4C[C@H](O)CC[C@]4(C)C3CC[C@@]21C (some centres undefined) | 1.1
* Cc1cc(=O)oc2c(O)c(O)ccc12 | 0.965
* O=c1cc(-c2ccccc2)oc2cc(O)c(O)c(O)c12 | 0.456
* C=C1C2CC[C@@]3(C)[C@H](c4ccoc4)OC(=O)C[C@]13O[C@H]1CC(O)C(C)(C)C(CC(=O)OC)[C@@]21C (some centres undefined) | 1.06
* COc1ccc(CCNC(=S)NCCc2ccc(OC)c(OC)c2)cc1OC | 1.06
* COc1c(Cl)ccc(Cl)c1C(=O)O | 1.06
* COC(=O)CCC(C)C1CCC2C3CC[C@@H]4C[C@H](O)CC[C@]4(C)C3C[C@H](O)[C@]12C (some centres undefined) | 0.843
* O=c1cc(-c2ccccc2)oc2cc(O)cc(O)c12 | 0.551
* NC(N)=O | 1.02
* N[C@H](Cc1cc(I)c(Oc2ccc(O)c(I)c2)c(I)c1)C(=O)O | 0.956
* CCCCCC1C(=O)CCC1CC(=O)OC (centres undefined) | 1.24

* * *

# experiment.summary: chemical genetic growth profiling, strain panel (AID 1159580)
# conditions: S. cerevisiae deletion strains, growth OD, locus YLR027C, strain aat2, active compounds read low
Hit rate of the full screen: of about 5,500 compounds, about 2,000 (36%) were called active. Roughly 18% stayed inconclusive and do not appear here. The list shows a part of the results.
The entries below are paired with their reported normalized growth.
property: normalized growth

- CN1CCN(C2=Nc3ccccc3Oc3ccc(Cl)cc32)CC1: 0.975
- O=c1cc(-c2ccccc2)oc2cc(O)c(O)cc12: 0.975
- O=[N+]([O-])c1cccc2c(Br)[nH]nc12: 0.972
- Nc1cc(-c2ccncc2)c[nH]c1=O: 0.831
- NC(N)=O: 1.02
- COc1ccc(C(=O)N2CCCC2=O)cc1: 0.963
- CC(=O)Nc1nnc(S(N)(=O)=O)s1: 1.01
- Nc1ccncc1: 0.994
- COc1cc(OC)c(OC)cc1C=O: 1.01
- CC(CN1c2ccccc2Sc2ccccc21)N(C)C (configuration not stated): 0.932
- CC(CN(C)C)CN1c2ccccc2Sc2ccccc21 (configuration not stated): 1.02
- COc1ccc(C(=O)CC(=O)c2ccc(C(C)(C)C)cc2)cc1: 0.988
- CC(CN(C)C)CN1c2ccccc2CCc2ccccc21 (configuration not stated): 0.974
- CCN(CC)C(C)CN1c2ccccc2Sc2ccccc21 (configuration not stated): 0.961
- COc1cc([C@@H]2c3cc4c(cc3[C@H](OC(C)=O)[C@H]3COC(=O)[C@@H]23)OCO4)cc(OC)c1OC: 1
- O=[N+]([O-])c1cccc2cn[nH]c12: 1
- CC12CC3CC(C)(C1)CC(N)(C3)C2: 0.991

* * *

# experiment.summary: chemical genetic growth profiling, strain panel (AID 1159580);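 further: tested at 20 µM; growth read once vehicle control cultures reached saturation at 30 °C; 1 = growth at the plate median or of vehicle wells; lower values mean less growth of the strain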
# conditions: S. cerevisiae deletion strains, growth OD, locus YGR252W, strain gcn5, active compounds read low
The campaign covered roughly 5,500 compounds. About 2,000 (36%) were called active. Inconclusive results (about 18%) are left out. The list shows a part of the results.
Lab note: compare normalized growth with 1, writing t if less and f if equal or more.

• COc1cc([C@H]2Oc3cc([C@H]4Oc5cc(O)cc(O)c5C(=O)[C@@H]4O)ccc3O[C@@H]2CO)ccc1O = t
• OC1=Cc2c(O)cc(O)cc2OC1(O)c1ccc(O)c(O)c1 (stereo not drawn) = f
• COc1cc2c(cc1-c1cc3cc4ccoc4cc3oc1=O)OCO2 = f
• CC1CC2C3CC(F)C4=CC(=O)C=CC4(C)C3(F)C(O)CC2(C)C1C(=O)COC(=O)C(C)(C)C (stereo not drawn) = t
• O=c1cc(-c2ccccc2)oc2c(O)c(O)ccc12 = t

* * *

# experiment.summary: chemical genetic growth profiling, strain panel (AID 1159580);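 further: tested at 20 µM; growth read once vehicle control cultures reached saturation at 30 °C; 1 = growth at the plate median or of vehicle wells; lower values mean less growth of the strain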
# conditions: S. cerevisiae deletion strains, growth OD, locus YJL128C, strain PBS2, active compounds read low
Out of some 5,500 compounds screened, about 2,000 (36%) were called active. Another 18% or so got no clear call; they are omitted. The list shows a part of the results.
The entries below are paired with their reported normalized growth.
property: normalized growth

- CNC(=O)n1nc(C)c(Cc2csc3ccc(Cl)cc23)c1C: 0.934
- Cc1nn(Cc2nnc(SCc3cccc(C(F)(F)F)c3)o2)c(C)c1Br: 0.945
- NNC(=O)c1csc(Cc2c(Cl)sc3ccc(Cl)cc23)n1: 0.998
- Cc1ccc(S(=O)(=O)Nc2ccc(Oc3ccc(F)cc3)cc2)cc1: 0.946
- COc1ccc(C(=O)NCc2csc3ccc(Cl)cc23)cc1OC: 0.92
- CC1C/C(=N/Nc2ccc(Br)cc2)c2cc(Cl)ccc2S1(=O)=O (stereo unspecified): 1
- COc1ccc(OC)c(-c2ccn[nH]2)c1OCc1ccccc1: 0.981
- O=S(=O)(Nc1ccc(Oc2ccc(OC(F)(F)F)cc2)cc1)c1cccc(Cl)c1: 0.936
- CS(=O)(=O)c1sc(C(=O)Sc2ccc(Cl)cc2)c2c1C=CCC2: 0.894
- Cc1ccc(N2C(=O)CSC2c2ccc(Cl)c(Cl)c2)cc1Cl (stereo unspecified): 0.922
- O=C(Nc1ccc(F)c(Cl)c1)c1ccccc1O: 0.846
- Oc1ccc(N=Nc2ccccn2)c(O)c1: 0.102
- O=C(Nc1cccc2ccccc12)c1ccccc1O: 0.823
- COc1cc(CC/C(C)=N/O)ccc1OCc1ccc(Cl)cc1Cl: 0.932
- O=C(CCn1c(=O)oc2ccccc21)Sc1ccc(Cl)cc1Cl: 0.907
- O=C1CSC(c2ccc(C(F)(F)F)cc2)N1c1ccc(C(F)(F)F)cc1 (stereo unspecified): 0.939

* * *

# experiment.summary: chemical genetic growth profiling, strain panel (AID 1159580);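 further: tested at 20 µM; growth read once vehicle control cultures reached saturation at 30 °C; 1 = growth at the plate median or of vehicle wells; lower values mean less growth of the strain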
# conditions: S. cerevisiae deletion strains, growth OD, locus YNL128W, strain TEP1, active compounds read low
The campaign covered roughly 5,500 compounds. About 2,000 (36%) were called active. Inconclusive results (about 18%) are left out. The list shows a part of the results.
property: normalized growth

* COc1cc2c(cc1/C=C/C(=O)c1cc(OC)c(OC)cc1OC)OCO2 | 0.996
* CC12CC3CC(C)(C1)CC(N)(C3)C2 | 1.01
* COc1ccc(CCNC(=S)NCCc2ccc(OC)c(OC)c2)cc1OC | 1.02
* N[C@H](Cc1cc(I)c(Oc2ccc(O)c(I)c2)c(I)c1)C(=O)O | 1.01
* COc1ccc(-n2c(-c3ccc(C)cc3)csc2=N)cc1 | 0.992
* CN[C@@H]1[C@H](OC2[C@H](O[C@H]3[C@H](O)[C@@H](O)[C@H](N=C(N)N)[C@@H](O)[C@@H]3N=C(N)N)O[C@@H](C)[C@]2(O)C=O)O[C@@H](CO)[C@H](O)[C@H]1O (stereo partly drawn) | 1.01
* CCO/C([O-])=N/c1c[n+](N2CCOCC2)no1 | 1.01
* COc1c2c(nc3ccccc13)OC(C(C)(O)CO)C2 (stereo not drawn) | 1.02
* COc1cc2c(cc1-c1cc3cc4ccoc4cc3oc1=O)OCO2 | 1.01
* O=C(Nc1nncs1)c1ccncc1 | 1.02
* COc1c2ccoc2nc2c(OC)c(OCC(O)C(C)(C)O)ccc12 (stereo not drawn) | 1.01
* COc1ccc(C(=O)N2CCCC2=O)cc1 | 0.979
* COc1cc([C@H]2Oc3cc([C@H]4Oc5cc(O)cc(O)c5C(=O)[C@@H]4O)ccc3O[C@@H]2CO)ccc1O | 0.993
* COc1ccc(-c2ccc(C=C(C#N)C#N)s2)cc1 | 0.977
* S=P(N1CC1)(N1CC1)N1CC1 | 1.01
* C=C[C@H]1CN2CC[C@H]1C[C@@H]2[C@H](O)c1ccnc2ccccc12 | 0.982
* COc1ccc(C(=O)C2CCNCC2)cc1 | 0.983
* Cc1cc(C)cc(OCC2CNC(=O)O2)c1 (stereo not drawn) | 1.01
* O=C(O)c1ccccc1C(=O)Nc1ccc(S(=O)(=O)Nc2nccs2)cc1 | 1.02
* COc1ccc(C(=O)CC(=O)c2ccc(C(C)(C)C)cc2)cc1 | 0.98
* NS(=O)(=O)c1cc2c(cc1Cl)NC(C1CC3C=CC1C3)NS2(=O)=O (stereo not drawn) | 0.94
* NC(=NCCCC(N)C(=O)O)N[N+](=O)[O-] (stereo not drawn) | 1.02
* CCCCSP(=O)(SCCCC)SCCCC | 1.01
* c1ccc2nc(N3CCNCC3)ccc2c1 | 1.01
* N[C@@H](Cc1cc(I)c(Oc2ccc(O)c(I)c2)c(I)c1)C(=O)O | 1.02
* C[C@H](N)[C@H](O)c1ccccc1 | 1.01
* N[C@H](Cc1ccccc1)C(=O)O | 1.02
* O=c1cc(-c2ccccc2)oc2cc(O)c(O)c(O)c12 | 0.387
* CSC(=NC(=O)c1c(Cl)cccc1Cl)SC | 0.928
* O=C(O)CC(CC(=O)Nc1ccc(I)cc1F)c1ccc(C(F)(F)F)cc1 (stereo not drawn) | 0.995
* N#Cc1csc([N+](=O)[O-])c1 | 0.942
* O=C(NNc1c(Cl)cc(Cl)cc1Cl)NC(=O)c1ccccc1F | 1.01
* N[C@@H](Cc1cc(I)c(Oc2cc(I)c(O)c(I)c2)c(I)c1)C(=O)O | 1.05
* NNCCc1ccccc1 | 1.01
* COc1ccc(CNc2ccccc2-c2nc3ccccc3[nH]2)cc1 | 0.917
* CN(C)CC[C@@H](c1ccc(Br)cc1)c1ccccn1 | 0.984
* O=C(Nc1ccccc1)Nc1ccccc1 | 1
* COc1c(Cl)ccc(Cl)c1C(=O)O | 1
* COc1c2ccccc2nc2occc12 | 0.952
* CC1(C)C(O)CC(O)C2(C)C1CC(O)C1(C)C2CCC2(C)C(c3ccoc3)OC(=O)C3OC321 (stereo not drawn) | 1.02
* N[C@H](CCCCCP(=O)(O)O)C(=O)O | 0.987
* CCCCS(=N)(=O)CCC(N)C(=O)O (stereo not drawn) | 0.991
* Cc1cc(O)c(C)c2c1C(=O)Oc1c(C)c(O)c(C(=O)O)c(C)c1O2 | 0.998
